# Test system: NOMO1
# test name: cell viability relative to DMSO control; higher = less cytotoxic
# study conditions: RPMI 5 mM glucose + 10% FBS; 48 h; 0.0632 µM
property: cell viability (%)

>  <molecule>
COCC(=O)NC/C=C/c1ccc2ncnc(Nc3ccc(Oc4ccc(C)nc4)c(C)c3)c2c1

>  <units label>
%

>  <readout value>
90.6

$$$$
>  <molecule>
CCC(=O)NC[C@H](Cc1ccc(OCCc2nc(-c3ccccc3)oc2C)cc1)N/C(C)=C\C(=O)c1ccc(C(F)(F)F)cc1

>  <units label>
%

>  <readout value>
106

$$$$
>  <molecule>
O=C(CCCN1CCC(O)(c2ccc(Cl)cc2)CC1)c1ccc(F)cc1

>  <units label>
%

>  <readout value>
128

$$$$
>  <molecule>
CCC[C@H](Nc1nc(-c2ccc(NC(=O)NCC)c(OC)c2)ncc1C)c1cccnc1

>  <units label>
%

>  <readout value>
50

$$$$
>  <molecule>
COc1cc(C[C@@H](CO)[C@H](CO)Cc2ccc(O)c(OC)c2)ccc1O

>  <units label>
%

>  <readout value>
103

$$$$
>  <molecule>
CCC(=O)O[C@@]1(CC[C@H]2[C@@H]3CCC/4=C/C(=O)CC[C@]4(C)[C@H]3CC[C@]12C)C(=O)CO

>  <units label>
%

>  <readout value>
107

$$$$
>  <molecule>
Clc1ccc(CCC(Cn2ccnc2)Sc2c(Cl)cccc2Cl)cc1 (centres undefined)

>  <units label>
%

>  <readout value>
89.2

$$$$
>  <molecule>
O=c1oc2cc(O)ccc2s1

>  <units label>
%

>  <readout value>
105

$$$$
>  <molecule>
COc1cccc(N(C)C(=S)Oc2ccc3c(c2)CCCC3)n1

>  <units label>
%

>  <readout value>
103

$$$$

* * *

# Lookup of reported cell viability keyed by entry
# Test system: SEM cells
# test name: cell viability relative to DMSO control; higher = less cytotoxic
# study conditions: RPMI 5 mM glucose + 10% FBS; 48 h; 0.00702 µM

>  <smiles data>
COc1cc(C[C@@H](CO)[C@H](CO)Cc2ccc(O)c(OC)c2)ccc1O

>  <cell viability [%]>
88.4

$$$$
>  <smiles data>
COc1cc2cc(c1Cl)N(C)C(=O)C[C@H](OC(=O)C(C)C)[C@]1(C)O[C@@H]1[C@H](C)[C@@H]1C[C@@](O)(NC(=O)O1)[C@H](OC)/C=C/C=C(\C)C2

>  <cell viability [%]>
21.4

$$$$
>  <smiles data>
Cc1nc2ccc(CN(C)c3ccc(C(=O)N[C@@H](CCC(=O)O)C(=O)O)s3)cc2c(=O)[nH]1

>  <cell viability [%]>
103

$$$$
>  <smiles data>
N#Cc1cc(NC(=O)Nc2nnc(-c3ccncc3)s2)ccc1-c1cn[nH]c1

>  <cell viability [%]>
93

$$$$
>  <smiles data>
CC1(C)[C@@H](O)CC[C@@]2(C)[C@H]1CC[C@]3(C)[C@@H]2C(=O)\C=C/4[C@@H]5C[C@](C)(CC[C@]5(C)CC[C@@]34C)C(O)=O

>  <cell viability [%]>
108

$$$$
>  <smiles data>
Cn1cnc(N)c2ncnc1-2

>  <cell viability [%]>
92.9

$$$$
>  <smiles data>
CCOC(=O)c1c(CSc2ccccc2)n(C)c2cc(Br)c(O)c(CN(C)C)c12

>  <cell viability [%]>
109

$$$$
>  <smiles data>
CNC(=O)c1nn(C)c2c1C(C)(C)Cc1cnc(Nc3ccc(N4CCN(C)CC4)cc3)nc1-2

>  <cell viability [%]>
113

$$$$
>  <smiles data>
COc1cc(N2CCC(N3CCN(C)CC3)CC2)ccc1Nc1ncc(Cl)c(Nc2ccccc2[S+](=O)([O-])C(C)C)n1

>  <cell viability [%]>
93.2

$$$$
>  <smiles data>
CC1=CC/2=C(C=C1C)N(C[C@@H](O)[C@@H](O)[C@@H](O)CO)C/3=N/C(=O)NC(=O)C3=N2

>  <cell viability [%]>
86.8

$$$$
>  <smiles data>
CCc1nc(N)nc(N)c1-c1ccc(Cl)cc1

>  <cell viability [%]>
63.4

$$$$
>  <smiles data>
COc1ccc(/C=C/C(=O)Nc2ccccc2C(=O)O)cc1OC

>  <cell viability [%]>
118

$$$$
>  <smiles data>
COCC(=O)NC/C=C/c1ccc2ncnc(Nc3ccc(Oc4ccc(C)nc4)c(C)c3)c2c1

>  <cell viability [%]>
124

$$$$
>  <smiles data>
CN(C)C(=O)[C@H](O)[C@H](Cc1ccccc1)NC(=O)c1cc2cc(Cl)ccc2[nH]1

>  <cell viability [%]>
81.7

$$$$
>  <smiles data>
CC(=O)OCC(=O)[C@@]1(O)CC[C@H]2[C@@H]3CCC/4=C/C(=O)/C=C\[C@]4(C)[C@H]3[C@@H](O)C[C@]12C

>  <cell viability [%]>
130

$$$$
>  <smiles data>
O=C(Nc1cccnc1)N1CCC(Cc2cccc(Oc3ccc(C(F)(F)F)cn3)c2)CC1

>  <cell viability [%]>
81.5

$$$$
>  <smiles data>
O=C1c2ccccc2-c2n[nH]c3cccc1c23

>  <cell viability [%]>
97.3

$$$$

* * *

# Tested on: NOMO1
# test name: cell viability relative to DMSO control; higher = less cytotoxic
# study conditions: HPLM + 10% dialyzed FBS; 48 h; 1.71 µM
Param label: returns true when cell viability < 90%, returns false otherwise, including exact equality.

>  <smiles data>
CN1CCN(CC1)C2=CC3=C([NH]C(=N3)C/4=C(\N)C5=C(F)C=CC=C5NC4=O)C=C2

>  <category>
false

$$$$
>  <smiles data>
OC(=O)CNC(=O)\C1=C(/O)C2=CC=CC=C2N(CC3=CC=CC=C3)C1=O

>  <category>
true

$$$$
>  <smiles data>
CC[C@H](CO)Nc1nc(NCc2ccccc2)c2ncn(C(C)C)c2n1

>  <category>
true

$$$$
>  <smiles data>
O=C(O)c1cccc(-c2noc(-c3ccccc3F)n2)c1

>  <category>
false

$$$$
>  <smiles data>
Cc1ccc(C(=O)Nc2ccc([S+](=O)([O-])O)c3cc([S+](=O)([O-])O)cc([S+](=O)([O-])O)c23)cc1NC(=O)c1cccc(NC(=O)Nc2cccc(C(=O)Nc3cc(C(=O)Nc4ccc([S+](=O)([O-])O)c5cc([S+](=O)([O-])O)cc([S+](=O)([O-])O)c45)ccc3C)c2)c1

>  <category>
true

$$$$
>  <smiles data>
N#Cc1c(N(CC(=O)[O-])CC(=O)[O-])sc(C(=O)[O-])c1CC(=O)[O-].O.O.O.O.O.O.O.[Sr+2].[Sr+2]

>  <category>
false

$$$$
>  <smiles data>
NC[C@H](O)c1ccc(O)c(O)c1

>  <category>
true

$$$$

* * *

# Lookup of reported cell viability keyed by entry
# Test system: P12-Ichikawa
# test name: cell viability relative to DMSO control; higher = less cytotoxic
# study conditions: RPMI 5 mM glucose + 10% dialyzed FBS; 48 h; 0.00702 µM

>  <molecule>
CC(C)(Sc1cc(C(C)(C)C)c(O)c(C(C)(C)C)c1)Sc1cc(C(C)(C)C)c(O)c(C(C)(C)C)c1

>  <units label>
%

>  <cell viability>
82.3

$$$$
>  <molecule>
Cc1cc(/C=c2/sc3nc4ccccc4n3c2=O)c(C)n1-c1ccccc1

>  <units label>
%

>  <cell viability>
116

$$$$
>  <molecule>
CN(C[C@@H]1COCCO1)[S+]([O-])(=O)NC2=CC3=C(C=C2)\C=C/C4=C(C=C(C=N4)C5=C[N](C)N=C5)C3=O

>  <units label>
%

>  <cell viability>
88.7

$$$$
>  <molecule>
OC[C@H]1OC(O)C[C@@H](O)[C@@H]1O (some centres undefined)

>  <units label>
%

>  <cell viability>
119

$$$$
>  <molecule>
NC[C@H](O)c1ccc(O)c(O)c1

>  <units label>
%

>  <cell viability>
99.9

$$$$
>  <molecule>
COCC(=O)NC/C=C/c1ccc2ncnc(Nc3ccc(Oc4ccc(C)nc4)c(C)c3)c2c1

>  <units label>
%

>  <cell viability>
115

$$$$
>  <molecule>
COc1cccc(N(C)C(=S)Oc2ccc3c(c2)CCCC3)n1

>  <units label>
%

>  <cell viability>
104

$$$$
>  <molecule>
O=c1oc2cc(O)ccc2s1

>  <units label>
%

>  <cell viability>
109

$$$$
>  <molecule>
CCC(=O)O[C@@]1(CC[C@H]2[C@@H]3CCC/4=C/C(=O)CC[C@]4(C)[C@H]3CC[C@]12C)C(=O)CO

>  <units label>
%

>  <cell viability>
108

$$$$

* * *

# Test system: NOMO1
# test name: cell viability relative to DMSO control; higher = less cytotoxic
# study conditions: RPMI 5 mM glucose + 10% FBS; 48 h; 5.12 µM
Param label: returns YES when cell viability < 90%, returns NO otherwise, including exact equality.

>  <smiles data>
COc1cc2c(cc1OC)CN(CCc1ccc(NC(=O)c3cccc4c(=O)c5cccc(OC)c5[nH]c34)cc1)CC2

>  <category>
YES

$$$$
>  <smiles data>
COc1cc(C[C@@H](CO)[C@H](CO)Cc2ccc(O)c(OC)c2)ccc1O

>  <category>
NO

$$$$
>  <smiles data>
Cc1cnc(Nc2cccc(CN3CCOCC3)c2)nc1Nc1cccc([S+](=O)([O-])NC(C)(C)C)c1

>  <category>
YES

$$$$
>  <smiles data>
Cc1nnc(C(=O)NC(C)(C)c2nc(C(=O)NCc3ccc(F)cc3)c(O)c(=O)n2C)o1

>  <category>
YES

$$$$
>  <smiles data>
OC1=C(Cl)C=C(N\C2=C(\C(=O)NC2=O)C3=C(C=CC=C3)[N+]([O-])=O)C=C1

>  <category>
YES

$$$$
>  <smiles data>
CC(=O)OCC(=O)[C@@]1(O)CC[C@H]2[C@@H]3CCC/4=C/C(=O)/C=C\[C@]4(C)[C@H]3[C@@H](O)C[C@]12C

>  <category>
NO

$$$$
>  <smiles data>
C/C=C(\C)C(=O)N[C@@H](c1ccccc1)[C@@H](O)C(=O)O[C@H]1C[C@@]2(O)[C@@H](OC(=O)c3ccccc3)[C@@H]3[C@]4(OC(C)=O)CO[C@@H]4C[C@H](O)[C@@]3(C)C(=O)[C@H](OC(C)=O)C(=C1C)C2(C)C

>  <category>
YES

$$$$
